Test system: crabgrass, large
PROTOCOL NOTES: Test A preemergence
Format: in vivo, Digitaria sanguinalis
SETUP CONDITIONS: preemergence, 500 g ai/ha, visual injury after approx. 10 days, 0 to 100 scale (0 no effect, 100 complete control)
PARAMETER: Crabgrass, Large plant response rating

# MOLECULE SMILES, TEST RESULT
measured = [
    ("CCCNC(=O)c1cc(CC)n(Cc2ccnc(OC(F)F)c2)n1", 100),
    ("CCCCc1cc(C(=O)NCCC)nn1Cc1ccnc(C(F)(F)F)c1", 100),
    ("CCCCc1cc(C(=O)NCC(F)(F)F)nn1Cc1ccnc(C(F)(F)F)c1", 100),
    ("CCc1cc(-c2ccc(C(F)(F)F)cc2)nn1C(=O)c1ccnc(C(F)(F)F)c1", 0),
    ("Cc1cc(C(=O)NC(C)C)nn1Cc1ccnc(C(F)(F)F)c1", 100),
]

---

Test system: ducksalad
PROTOCOL NOTES: Test C flooded paddy test
Format: in vivo, Heteranthera limosa
SETUP CONDITIONS: Flood, 62 g ai/ha; scale 0 to 100 (0 no effect, 100 complete control)
Plant response rating, Ducksalad for assorted compounds
PARAMETER: Plant response rating, Ducksalad

# MOLECULE SMILES, PARAMETER, TEST RESULT
data = [
    ("CCONC(=O)c1cc(OCC)n(Cc2ccnc(C(F)(F)F)c2)n1", "Plant response rating, Ducksalad", 20),
    ("CCc1cc(C(=O)NCC(F)(F)F)nn1Cc1ccnc(OCC(F)(F)F)c1", "Plant response rating, Ducksalad", 50),
    ("CCCNC(=O)c1cc(CCCl)n(Cc2ccnc(C(F)(F)F)c2)n1", "Plant response rating, Ducksalad", 100),
    ("CCc1cc(C(=O)NOC(C)(C)CC)nn1Cc1cccc(OC(F)(F)F)c1", "Plant response rating, Ducksalad", 0),
]

---

System: barnyardgrass
PROTOCOL NOTES: Test A postemergence
Assay type: in vivo, Echinochloa crus-galli
SETUP CONDITIONS: Postemergence, 500 g ai/ha; visual rating after approx. 10 days, 0 to 100 scale (0 no effect, 100 complete control)
Barnyardgrass plant response rating for assorted compounds

# MOLECULE SMILES, Barnyardgrass plant response rating
records = [
    ("CNC(=O)c1cc(C)n(Cc2cccc(OC(F)(F)F)c2)n1", 0),
    ("CCc1cc(C(=O)NC(C)C)nn1Cc1ccnc(C(F)(F)F)c1", 90),
    ("Cc1cc(C(=O)NC2CC2)nn1Cc1cccc(OC(F)(F)F)c1", 60),
    ("CCCc1cc(C(=O)NCC)nn1Cc1ccnc(C(F)(F)F)c1", 100),
]

---

Tested on: barnyardgrass
PROTOCOL NOTES: Test C flooded paddy test
Format: in vivo, Echinochloa crus-galli
SETUP CONDITIONS: Flood, 250 g ai/ha; scale 0 to 100

# COMPOUND, Plant response rating, Barnyardgrass
rows = [
    ("CCONC(=O)c1cc(OCC)n(Cc2ccnc(C(F)(F)F)c2)n1 [Compound 195]", 45),
    ("CCCc1cc(C(=O)NCC(F)(F)F)nn1Cc1cccc(C(F)(F)F)c1 [Compound 31]", 20),
    ("CCCc1cc(C(=O)NCC)nn1Cc1cccc(C(F)(F)F)c1 [Compound 29]", 20),
    ("CCCc1cc(C(=O)NC2CC2)nn1Cc1cccc(C(F)(F)F)c1 [Compound 30]", 20),
]

---

System: velvetleaf
PROTOCOL NOTES: Test A preemergence
Format: in vivo, Abutilon theophrasti
SETUP CONDITIONS: preemergence, 125 g ai/ha, visual injury approx. 10 days after treatment
Velvetleaf plant response rating (0 to 100 scale) for assorted compounds
PARAMETER: Velvetleaf plant response rating (0 to 100 scale)

# MOLECULE SMILES, TEST RESULT
measured = [
    ("Cc1cc(C(=O)NC(C)C)nn1Cc1ccnc(C(F)(F)F)c1", 70),
    ("CCc1cc(C(=O)NN(C)C)nn1Cc1ccnc(C(F)(F)F)c1", 0),
    ("CCCc1cc(C(=O)NOCC)nn1Cc1ccnc(C(F)(F)F)c1", 70),
    ("CCCCc1cc(C(=O)NCC(F)(F)F)nn1Cc1ccnc(C(F)(F)F)c1", 0),
    ("CCCCc1cc(C(=O)NCCC)nn1Cc1ccnc(C(F)(F)F)c1", 0),
    ("CCONC(=O)c1cc(OCC)n(Cc2ccnc(C(F)(F)F)c2)n1", 80),
    ("CCc1cc(C(=O)NC2CC2)nn1Cc1ccnc(OCC(F)(F)F)c1", 20),
    ("CCCNC(=O)c1cc(CCCl)n(Cc2ccnc(C(F)(F)F)c2)n1", 50),
    ("CCc1cc(-c2ccc(C(F)(F)F)cc2)nn1C(=O)c1ccnc(C(F)(F)F)c1", 0),
]

---

System: kochia
PROTOCOL NOTES: Test C postemergence
Type: in vivo, Kochia scoparia
SETUP CONDITIONS: postemergence, 250 g ai/ha; scale 0 to 100 (0 no effect, 100 complete control)

# MOLECULE SMILES, Plant response rating, Kochia
data = [
    ("CCc1cc(C(=O)NC2CC2)nn1Cc1ccnc(OCC(F)(F)F)c1", 90),
    ("CCc1cc(C(=O)NC(C)C)nn1Cc1ccnc(C(F)(F)F)c1", 85),
    ("CCCc1cc(C(=O)NCC)nn1Cc1cc(C(F)(F)F)nn1C", 90),
    ("CCCNC(=O)c1cc(CCC)n(Cc2cc(C(F)(F)F)nn2C)n1", 90),
    ("CCOc1cc(C(=O)NC2CC2)nn1Cc1ccnc(OC(F)F)c1", 90),
    ("CCCc1cc(C(=O)NCC)nn1Cc1ccnc(C(F)(F)F)c1", 85),
    ("CCCc1cc(C(=O)NOCC)nn1Cc1ccnc(C(F)(F)F)c1", 80),
    ("CCNC(=O)c1cc(CC)n(Cc2ccnc(OC(F)F)c2)n1", 90),
]

---

Tested on: corn
PROTOCOL NOTES: Test A preemergence
Type: in vivo, Zea mays
SETUP CONDITIONS: preemergence, 125 g ai/ha, visual injury approx. 10 days after treatment
Corn plant response rating (0 to 100 scale) for assorted compounds
PARAMETER: Corn plant response rating (0 to 100 scale)

# COMPOUND, TEST RESULT
data = [
    ("CCc1cc(C(=O)NC2CC2)nn1Cc1nc(C(F)(F)F)no1 [Compound 163]", 0),
    ("CCc1cc(-c2ccc(C(F)(F)F)cc2)nn1C(=O)c1ccnc(C(F)(F)F)c1 [Compound 165]", 0),
    ("Cc1cc(C(=O)NC(C)C)nn1Cc1ccnc(C(F)(F)F)c1 [Compound 197]", 0),
    ("CCCNC(=O)c1cc(CCCl)n(Cc2ccnc(C(F)(F)F)c2)n1 [Compound 145]", 30),
    ("CCOc1cc(C(=O)NC2CC2)nn1Cc1ccnc(C(F)(F)F)c1 [Compound 189]", 80),
    ("CCCNC(=O)c1cc(COC)n(Cc2cc(C(F)(F)C(F)(F)F)nn2C)n1 [Compound 228]", 0),
    ("CCCCc1cc(C(=O)NCC(F)(F)F)nn1Cc1ccnc(C(F)(F)F)c1 [Compound 148]", 0),
    ("CCCNC(=O)c1cc(CCC)n(Cc2cc(C(F)(F)F)nn2C)n1 [Compound 198]", 0),
]

---

Test system: ryegrass, Italian
PROTOCOL NOTES: Test C preemergence
Assay type: in vivo, Lolium multiflorum
SETUP CONDITIONS: preemergence, 125 g ai/ha; 13 to 15 days; scale 0 to 100, 0 = no effect, 100 = complete control

# MOLECULE SMILES, Plant response rating, Ryegrass, Italian
rows = [
    ("CCCNC(=O)c1cc(CCC)n(Cc2cc(C(F)(F)F)nn2C)n1", 90),
    ("CCCNC(=O)c1cc(CCCl)n(Cc2ccnc(C(F)(F)F)c2)n1", 85),
    ("CCCc1cc(C(=O)NCC)nn1Cc1cc(C(F)(F)F)nn1C", 95),
    ("CCNC(=O)c1cc(CC)n(Cc2ccnc(OC(F)F)c2)n1", 65),
    ("CCOc1cc(C(=O)NC2CC2)nn1Cc1ccnc(C(F)(F)F)c1", 90),
    ("CCc1cc(C(=O)NC(C)C)nn1Cc1ccnc(C(F)(F)F)c1", 90),
    ("CCc1cc(C(=O)NC2CC2)nn1Cc1cc(C(F)(F)C(F)(F)F)nn1C", 35),
    ("CCCc1cc(C(=O)NOCC)nn1Cc1ccnc(C(F)(F)F)c1", 90),
]

---

System: corn
PROTOCOL NOTES: Test C postemergence
Format: in vivo, Zea mays
SETUP CONDITIONS: postemergence; 125 g ai/ha; scale 0 to 100, 0 no effect, 100 complete control

# COMPOUND, Plant response rating, Corn
records = [
    ("CCc1cc(C(=O)NCC(F)(F)F)nn1Cc1cc(OC(F)F)nn1C [Compound 206]", 5),
    ("CCNC(=O)c1cc(CC)n(Cc2ccnc(OC(F)F)c2)n1 [Compound 130]", 5),
    ("CCc1cc(C(=O)NCC(F)(F)F)nn1Cc1ccnc(C(F)(F)F)c1 [Compound 78]", 25),
    ("CCOc1cc(C(=O)NC2CC2)nn1Cc1ccnc(OC(F)F)c1 [Compound 133]", 10),
]
